Target: T1, 14 AA stub (a.a. 290-303 of SEQ ID NO: 247) (human)
T1 peptide: GYLVLDLSMQEALS
Test: SPR, mAb captured, peptide injected
reported.metric: Kd (nM)
One number for each entry, in nM.

• MSLNB570 (antibody, V domains shown, mAb; also called MSNB570) VH: QVQLQQSGPGLVKPSQTLSLTCAISGDSVSSTSVAWNWIRQSPSGGLEWLGRTYYRSKWYNDYALSVKSRMTINPDTASNQFSLQLNSVTPEDTAVYYCSRGIVGALDYWGQGTLVTVSS VL: DIVMTQTPLSLPVTPGGPASISCRSSQSLMYSNGYNHLDWYLQKPGQSPQFLIHLGSNRVSGVPDRFSGSGSGTDFTLKISRVEAEDVGVYYCMQALRTPYTFGQGTKVDIK = 3.67

Kindly consider the entry below.
Lab note: measured Kd of MSLNB568 (antibody, V domains shown, mAb; also called MSLNB568.001; MSNB568) VH: QVQLQQSGPGLVKPSQTLSLTCGISGDSVSSSSVAWNWIRQSPSRGLEWLGRTYYRSKWYNDYAISVRSRVTINPDTSKNQFSLQLNSVTPEDTAVYYCSRGVVGALDYWGQGTLVTVSS VL: DIVMTQSPLSLTVTPGEPASISCRSSQSLLFTNGYNSLDWYLQKPGQSPQFLIYLVSNRASGVPDRFSGSGSGTDFTLKISRVEAEDVGVYYCMQALRTPYTFGQGTKVEIK was 1.61
